Measured values drawn from patent US20050261264A1 for this set.

- PROCEDURE TEXT: Miscibility with solvents, visual evaluation at 5 wt %
- Assay type: physicochemical
- Set-up: key: ⊚: dissolves at room temperature; ◯: dissolves when heated for 5 minutes at 40° C.; Δ: dissolves under heating, but cooling precipitates crystals; X: does not dissolve
- CONDITION NOTES: complex added at 5 wt %
- Protocol: The miscibility of the rare earth complex with various media was evaluated as follows. 1) Miscibility with Solvents
MEASURED QUANTITY: Miscibility, Chloroform

molecule="O=C(C=C([O-])C(F)(F)F)C(F)(F)F.O=C(C=C([O-])C(F)(F)F)C(F)(F)F.O=C(C=C([O-])C(F)(F)F)C(F)(F)F.[Eu+3] [Eu(HFA)3, reference compound]" measured_quantity="Miscibility, Chloroform" experimental_value=X
molecule=O=P(c1ccccc1)(c1ccccc1)c1ccccc1.O=P(c1ccccc1)(c1ccccc1)c1ccccc1.O=P(c1ccccc1)(c1ccccc1)c1ccccc1.O=P(c1ccccc1)(c1ccccc1)c1ccccc1.O=P(c1ccccc1)(c1ccccc1)c1ccccc1.O=P(c1ccccc1)(c1ccccc1)c1ccccc1.O=P(c1ccccc1)(c1ccccc1)c1ccccc1.O=P(c1ccccc1)(c1ccccc1)c1ccccc1.O=S(=O)([N-]S(=O)(=O)C(F)(F)F)C(F)(F)F.O=S(=O)([N-]S(=O)(=O)C(F)(F)F)C(F)(F)F.O=S(=O)([N-]S(=O)(=O)C(F)(F)F)C(F)(F)F.[Nd+3] measured_quantity="Miscibility, Chloroform" experimental_value=⊚
molecule="O=S(=O)([N-]S(=O)(=O)C(F)(F)F)C(F)(F)F.O=S(=O)([N-]S(=O)(=O)C(F)(F)F)C(F)(F)F.O=S(=O)([N-]S(=O)(=O)C(F)(F)F)C(F)(F)F.[Nd+3] [Nd(PMS)3, reference compound]" measured_quantity="Miscibility, Chloroform" experimental_value=X

---

- PROCEDURE TEXT: Luminescence quantum yield and luminescence intensity in solution
- Format: physicochemical
- CONDITION NOTES: acetonitrile solution, Eu 0.05 mol/L; relative to Eu(PMS)3 (Comparative Example 7) = 1
MEASURED QUANTITY: Relative luminescence intensity
One number for each entry.

compound=O=S(=O)([N-]S(=O)(=O)C(F)(F)F)C(F)(F)F.O=S(=O)([N-]S(=O)(=O)C(F)(F)F)C(F)(F)F.O=S(=O)([N-]S(=O)(=O)C(F)(F)F)C(F)(F)F.[Eu+3].c1cnc2c(c1)ccc1cccnc12.c1cnc2c(c1)ccc1cccnc12.c1cnc2c(c1)ccc1cccnc12.c1cnc2c(c1)ccc1cccnc12 experimental_value=49.5
compound=O=S(=O)([N-]S(=O)(=O)C(F)(F)F)C(F)(F)F.O=S(=O)([N-]S(=O)(=O)C(F)(F)F)C(F)(F)F.O=S(=O)([N-]S(=O)(=O)C(F)(F)F)C(F)(F)F.O=S(c1ccccc1)c1ccccc1.O=S(c1ccccc1)c1ccccc1.O=S(c1ccccc1)c1ccccc1.O=S(c1ccccc1)c1ccccc1.O=S(c1ccccc1)c1ccccc1.O=S(c1ccccc1)c1ccccc1.O=S(c1ccccc1)c1ccccc1.O=S(c1ccccc1)c1ccccc1.[Eu+3] experimental_value=41.7
compound="O=S(=O)([N-]S(=O)(=O)C(F)(F)F)C(F)(F)F.O=S(=O)([N-]S(=O)(=O)C(F)(F)F)C(F)(F)F.O=S(=O)([N-]S(=O)(=O)C(F)(F)F)C(F)(F)F.[Eu+3] [Eu(PMS)3, reference compound]" experimental_value=1.0

Would you kindly look at the next entry?
Measured Relative luminescence intensity, "O=P(c1ccccc1)(c1ccccc1)c1ccccc1.O=P(c1ccccc1)(c1ccccc1)c1ccccc1.O=P(c1ccccc1)(c1ccccc1)c1ccccc1.O=P(c1ccccc1)(c1ccccc1)c1ccccc1.O=P(c1ccccc1)(c1ccccc1)c1ccccc1.O=P(c1ccccc1)(c1ccccc1)c1ccccc1.O=P(c1ccccc1)(c1ccccc1)c1ccccc1.O=P(c1ccccc1)(c1ccccc1)c1ccccc1.O=S(=O)([N-]S(=O)(=O)C(F)(F)F)C(F)(F)F.O=S(=O)([N-]S(=O)(=O)C(F)(F)F)C(F)(F)F.O=S(=O)([N-]S(=O)(=O)C(F)(F)F)C(F)(F)F.[Eu+3]" : 45.1
